Measured IC50 at 24 h values are reported for all entries that follow.
Assay: MTT cytotoxicity assay, normal human cell line
Format: cell-based
Details: human, WI38 cells (normal human cells), 24 h treatment, mean ± SD of three experiments, read-out: In Vitro Cytotoxicity IC50 WI38
Give the value in µM but do not write µM after it.

# molecule, uom, IC50 at 24 h
data = [
    ("Cc1ccc(-n2c(SCc3ccc(Cl)cc3)nc3ccc(F)cc3c2=O)cc1 [Compound 5d]", "µM", 40.9),
    ("Cc1ccc(CSc2nc3ccc(F)cc3c(=O)n2-c2ccc(F)cc2)cc1 [Compound 5a]", "µM", 28.7),
    ("Cc1ccc(-n2c(SCc3ccc(F)cc3)nc3ccc(F)cc3c2=O)cc1 [Compound 5e]", "µM", 55.8),
]

INPUT: Fill blank: measured IC50 at 24 h of the molecule CCN(CC)CCNC(=O)c1c(C)[nH]c(/C=C2\C(=O)Nc3ccc(F)cc32)c1C [Sunitinib, sunitinib, reference compound] is ____.
OUTPUT: 77.3

* * *

Test system: HeLa cells
Test: MTT cytotoxicity assay
Assay type: cell-based, human
Conditions: 24 h treatment, mean ± SD of three experiments, read-out: In Vitro Cytotoxicity IC50 HeLa
assay endpoint: IC50

INPUT: Record lookup: for HeLa cells, what IC50 belongs to Cc1ccc(-n2c(SCc3ccccc3)nc3ccc(F)cc3c2=O)cc1 ?
OUTPUT: 31.2 µM

* * *

Test system: HepG2 cells
Experiment: MTT cytotoxicity assay
Type: cell-based, human
Conditions: 24 h treatment, mean ± SD of three experiments, read-out: In Vitro Cytotoxicity IC50 HepG2
assay endpoint: pIC50
# reply with the number alone; pIC50 is -log10 of concentration in mol/L

INPUT: Fill blank: measured pIC50 of the molecule Cc1ccc(-n2c(SCc3ccccc3)nc3ccc(F)cc3c2=O)cc1 is ____.
OUTPUT: 4.46

* * *

assay endpoint: melting point

# chem smiles, melting point
data = [
    ("Cc1ccc(CSc2nc3ccc(F)cc3c(=O)n2-c2ccc(F)cc2)cc1", "166 to 168 °C"),
]

INPUT: Fill blank: measured melting point of the compound Cc1ccc(-n2c(SCc3ccc(F)cc3)nc3ccc(F)cc3c2=O)cc1 is ____.
OUTPUT: 170 to 172 °C

INPUT: # iterate: Cc1ccc(CSc2nc3ccc(F)cc3c(=O)n2-c2ccccc2)cc1
OUTPUT: 158 to 160 °C

INPUT: # iterate: Cc1ccc(-n2c(SCc3ccccc3)nc3ccc(F)cc3c2=O)cc1
OUTPUT: 156 to 158 °C

* * *

Molecular target: EGFR (Homo sapiens, UniProt P00533)
Sequence (P00533 25-1210): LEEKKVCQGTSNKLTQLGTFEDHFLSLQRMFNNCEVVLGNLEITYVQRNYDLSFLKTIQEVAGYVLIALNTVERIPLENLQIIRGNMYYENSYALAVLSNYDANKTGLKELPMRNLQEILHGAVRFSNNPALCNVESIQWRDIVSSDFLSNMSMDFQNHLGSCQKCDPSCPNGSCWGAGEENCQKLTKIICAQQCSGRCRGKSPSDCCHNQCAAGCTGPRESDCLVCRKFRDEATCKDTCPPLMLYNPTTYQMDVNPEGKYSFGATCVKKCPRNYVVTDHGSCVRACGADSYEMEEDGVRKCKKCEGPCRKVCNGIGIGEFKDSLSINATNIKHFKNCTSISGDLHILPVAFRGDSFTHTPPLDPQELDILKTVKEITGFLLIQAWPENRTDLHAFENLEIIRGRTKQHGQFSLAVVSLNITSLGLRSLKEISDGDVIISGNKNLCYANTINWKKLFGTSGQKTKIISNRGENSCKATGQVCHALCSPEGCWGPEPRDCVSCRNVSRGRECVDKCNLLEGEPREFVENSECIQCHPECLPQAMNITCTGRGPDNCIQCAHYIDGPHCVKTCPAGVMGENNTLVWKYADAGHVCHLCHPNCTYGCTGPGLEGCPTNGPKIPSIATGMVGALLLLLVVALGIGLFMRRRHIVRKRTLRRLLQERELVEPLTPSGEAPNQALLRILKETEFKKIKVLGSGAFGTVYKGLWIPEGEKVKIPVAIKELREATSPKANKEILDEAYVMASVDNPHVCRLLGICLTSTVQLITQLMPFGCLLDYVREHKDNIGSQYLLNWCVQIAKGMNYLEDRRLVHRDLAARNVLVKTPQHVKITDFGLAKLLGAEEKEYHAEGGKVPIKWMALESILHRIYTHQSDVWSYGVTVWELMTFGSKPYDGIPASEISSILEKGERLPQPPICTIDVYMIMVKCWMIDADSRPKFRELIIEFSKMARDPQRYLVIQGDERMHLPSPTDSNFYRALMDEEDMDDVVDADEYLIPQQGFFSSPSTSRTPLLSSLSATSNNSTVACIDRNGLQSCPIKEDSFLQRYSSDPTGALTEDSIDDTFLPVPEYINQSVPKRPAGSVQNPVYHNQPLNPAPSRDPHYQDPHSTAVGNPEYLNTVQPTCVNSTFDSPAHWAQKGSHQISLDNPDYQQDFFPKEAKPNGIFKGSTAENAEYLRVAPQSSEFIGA
assay endpoint: pIC50
# reply with the number alone; pIC50 is -log10 of concentration in mol/L

INPUT: Fill blank: measured pIC50 of the compound Cc1ccc(-n2c(SCc3ccc(Cl)cc3)nc3ccc(F)cc3c2=O)cc1 is ____.
OUTPUT: 6.66

* * *

Test system: HeLa cells
Assay: MTT cytotoxicity assay
Assay type: cell-based, human
Conditions: Homo sapiens, 24 h, 24 h treatment, mean ± SD of three experiments, read-out: In Vitro Cytotoxicity IC50 HeLa
Measured pIC50 values are reported for all entries that follow.
# reply with the number alone; pIC50 is -log10 of concentration in mol/L

# compound, value observed
data = [
    ("Cc1ccc(-n2c(SCc3ccc(F)cc3)nc3ccc(F)cc3c2=O)cc1 [Compound 5e]", 4.42),
    ("CCN(CC)CCNC(=O)c1c(C)[nH]c(/C=C2\\C(=O)Nc3ccc(F)cc32)c1C [Sunitinib, sunitinib, reference compound]", 4.66),
    ("Cc1ccc(CSc2nc3ccc(F)cc3c(=O)n2-c2ccc(F)cc2)cc1 [Compound 5a]", 4.08),
]

Here's the next entry for you.
INPUT: Fill blank: measured pIC50 of the compound Cc1ccc(-n2c(SCc3ccc(Cl)cc3)nc3ccc(F)cc3c2=O)cc1 [Compound 5d] is ____.
OUTPUT: 5.20

* * *

Test system: WI38 cells
Assay: MTT cytotoxicity assay, normal human cell line
Assay type: cell-based
Conditions: 24 h treatment, mean ± SD of three experiments, read-out: In Vitro Cytotoxicity IC50 WI38
Measured pIC50 values are reported for all entries that follow.
# reply with the number alone; pIC50 is -log10 of concentration in mol/L

# compound, pIC50
data = [
    ("Cc1ccc(-n2c(SCc3ccc(Cl)cc3)nc3ccc(F)cc3c2=O)cc1 [Compound 5d]", 4.19),
]

Here's the next entry for you.
INPUT: Fill blank: measured pIC50 of the compound Cc1ccc(-n2c(SCc3ccccc3)nc3ccc(F)cc3c2=O)cc1 [Compound 5c] is ____.
OUTPUT: 4.39

* * *

Biological target: VEGFR2 (Homo sapiens, UniProt P35968)
Sequence (P35968 20-1356): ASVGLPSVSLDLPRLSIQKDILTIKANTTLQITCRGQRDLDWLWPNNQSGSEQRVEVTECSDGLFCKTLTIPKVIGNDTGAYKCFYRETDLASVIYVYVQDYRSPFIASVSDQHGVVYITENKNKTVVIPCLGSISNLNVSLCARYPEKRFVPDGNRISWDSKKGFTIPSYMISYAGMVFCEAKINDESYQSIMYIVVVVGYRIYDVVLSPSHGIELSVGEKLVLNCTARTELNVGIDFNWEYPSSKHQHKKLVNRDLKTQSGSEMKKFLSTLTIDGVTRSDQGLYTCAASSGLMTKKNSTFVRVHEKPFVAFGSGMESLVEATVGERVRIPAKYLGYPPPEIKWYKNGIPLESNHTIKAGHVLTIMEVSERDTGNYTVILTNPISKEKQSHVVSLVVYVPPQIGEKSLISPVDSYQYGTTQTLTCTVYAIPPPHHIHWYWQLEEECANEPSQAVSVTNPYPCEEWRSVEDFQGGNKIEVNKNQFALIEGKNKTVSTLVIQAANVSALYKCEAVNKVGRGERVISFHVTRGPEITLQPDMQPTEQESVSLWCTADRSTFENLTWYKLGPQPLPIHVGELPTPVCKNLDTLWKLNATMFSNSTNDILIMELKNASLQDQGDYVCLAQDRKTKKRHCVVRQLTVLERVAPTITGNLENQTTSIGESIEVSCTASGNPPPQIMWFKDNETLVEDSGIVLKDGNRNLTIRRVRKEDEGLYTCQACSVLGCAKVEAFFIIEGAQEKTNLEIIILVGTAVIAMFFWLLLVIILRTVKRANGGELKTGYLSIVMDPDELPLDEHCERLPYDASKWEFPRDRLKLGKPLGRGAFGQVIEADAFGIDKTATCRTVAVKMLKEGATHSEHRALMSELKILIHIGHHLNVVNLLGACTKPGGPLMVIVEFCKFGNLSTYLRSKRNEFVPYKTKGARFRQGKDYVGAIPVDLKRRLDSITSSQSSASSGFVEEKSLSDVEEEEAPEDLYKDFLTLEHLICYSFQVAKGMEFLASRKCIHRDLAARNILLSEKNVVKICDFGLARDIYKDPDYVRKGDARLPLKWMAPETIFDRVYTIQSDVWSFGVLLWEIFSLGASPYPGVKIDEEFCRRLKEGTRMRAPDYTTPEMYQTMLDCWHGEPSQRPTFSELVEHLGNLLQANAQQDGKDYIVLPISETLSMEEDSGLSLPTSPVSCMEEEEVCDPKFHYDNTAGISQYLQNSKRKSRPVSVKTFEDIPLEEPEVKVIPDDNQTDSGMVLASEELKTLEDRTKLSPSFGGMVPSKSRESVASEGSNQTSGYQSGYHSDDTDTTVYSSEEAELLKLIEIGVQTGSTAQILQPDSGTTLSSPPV
assay endpoint: IC50 (nM)
Give the value in nM but do not write nM after it.

INPUT: Record lookup: for VEGFR2 (Homo sapiens, UniProt P35968), what IC50 belongs to Cc1ccc(-n2c(SCc3ccc(Cl)cc3)nc3ccc(F)cc3c2=O)cc1 ?
OUTPUT: 336

* * *

Tested on: MCF-7 cells
Test: MTT cytotoxicity assay
Format: cell-based, human
Conditions: MCF-7, MTT, 24 h treatment, mean ± SD of three experiments; read-out: In Vitro Cytotoxicity IC50 MCF-7
assay endpoint: IC50

INPUT: Record lookup: for MCF-7 cells, what IC50 belongs to Cc1ccc(-n2c(SCc3ccccc3)nc3ccc(F)cc3c2=O)cc1 ?
OUTPUT: 51.9 µM

* * *

Tested on: MDA-MB-231 cells
Assay: MTT cytotoxicity assay
Assay type: cell-based, human
Conditions: MDA-MB-231, MTT, 24 h treatment, mean ± SD of three experiments; read-out: In Vitro Cytotoxicity IC50 MDA-MB-231
assay endpoint: IC50 (µM)
Give the value in µM but do not write µM after it.

INPUT: Fill blank: measured IC50 of the molecule Cc1ccc(-n2c(SCc3ccccc3)nc3ccc(F)cc3c2=O)cc1 is ____.
OUTPUT: 26.9

Data provenance is paper PMC10383864.
